- MEASURED_TARGET: T1, 4H906-bA
- T1 chain: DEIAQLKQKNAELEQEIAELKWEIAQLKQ
- ASSAY_OVERVIEW: two-hybrid library CCNG1;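 further: natural log of median RNA to DNA barcode read ratio; higher means stronger binding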
ASSAY_METRIC: interaction score

// below: answered binders
binder="DKNAQLEQEIAELKQKIAELEWKNAQLEQ [4H3175-bA]" assay_metric="interaction score" obs_value=-1.09
binder="DKNAQLKQKNAELEQEIAELEWKIAQLKQ [4H3974-bA]" assay_metric="interaction score" obs_value=-1.37
binder="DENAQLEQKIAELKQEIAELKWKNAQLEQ [4H1359-bA]" assay_metric="interaction score" obs_value=-0.601
binder="DKNAQLKQEIAELEQKNAELEWKIAQLKQ [4H3638-bA]" assay_metric="interaction score" obs_value=-1.97
binder="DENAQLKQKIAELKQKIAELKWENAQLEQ [4H1899-bA]" assay_metric="interaction score" obs_value=-0.765

A = DKNAQLEQKNAELEQKIAELKWEIAQLEQ [4H3497-bA]
B = DKNAQLEQKIAELKQENAELEWKIAQLKQ [4H3414-bA]
Ask | # query: argmin of interaction score over A and B Which one? Tell me its label.
Reply | A
(A: -1.2, B: -0.43)

1 = DEIAQLKQKIAELKQENAELEWEIAQLKQ [4H850-bA]
2 = DKNAQLEQEIAELKQKIAELEWENAQLKQ [4H3172-bA]
Ask | Which numeric interaction score is bigger, that of 1 or that of 2 ? Which one? Tell me its label.
Reply | 2
(2: -0.0855, 1: -1.27)

a = DKNAQLKQEIAELEQENAELKWKIAQLEQ [4H3613-bA]
b = DKNAQLEQKNAELEQEIAELEWKIAQLKQ [4H3462-bA]
Ask | # query: argmin of interaction score over a and b Which one? Tell me its label.
Reply | b
(b: -1.46, a: -0.971)
